- TARGET_UNDER_TEST: PDGF-Ra (Homo sapiens)
- Construct: host or cells: G-292 human osteosarcoma cells
- Sequence (P16234 24-1089): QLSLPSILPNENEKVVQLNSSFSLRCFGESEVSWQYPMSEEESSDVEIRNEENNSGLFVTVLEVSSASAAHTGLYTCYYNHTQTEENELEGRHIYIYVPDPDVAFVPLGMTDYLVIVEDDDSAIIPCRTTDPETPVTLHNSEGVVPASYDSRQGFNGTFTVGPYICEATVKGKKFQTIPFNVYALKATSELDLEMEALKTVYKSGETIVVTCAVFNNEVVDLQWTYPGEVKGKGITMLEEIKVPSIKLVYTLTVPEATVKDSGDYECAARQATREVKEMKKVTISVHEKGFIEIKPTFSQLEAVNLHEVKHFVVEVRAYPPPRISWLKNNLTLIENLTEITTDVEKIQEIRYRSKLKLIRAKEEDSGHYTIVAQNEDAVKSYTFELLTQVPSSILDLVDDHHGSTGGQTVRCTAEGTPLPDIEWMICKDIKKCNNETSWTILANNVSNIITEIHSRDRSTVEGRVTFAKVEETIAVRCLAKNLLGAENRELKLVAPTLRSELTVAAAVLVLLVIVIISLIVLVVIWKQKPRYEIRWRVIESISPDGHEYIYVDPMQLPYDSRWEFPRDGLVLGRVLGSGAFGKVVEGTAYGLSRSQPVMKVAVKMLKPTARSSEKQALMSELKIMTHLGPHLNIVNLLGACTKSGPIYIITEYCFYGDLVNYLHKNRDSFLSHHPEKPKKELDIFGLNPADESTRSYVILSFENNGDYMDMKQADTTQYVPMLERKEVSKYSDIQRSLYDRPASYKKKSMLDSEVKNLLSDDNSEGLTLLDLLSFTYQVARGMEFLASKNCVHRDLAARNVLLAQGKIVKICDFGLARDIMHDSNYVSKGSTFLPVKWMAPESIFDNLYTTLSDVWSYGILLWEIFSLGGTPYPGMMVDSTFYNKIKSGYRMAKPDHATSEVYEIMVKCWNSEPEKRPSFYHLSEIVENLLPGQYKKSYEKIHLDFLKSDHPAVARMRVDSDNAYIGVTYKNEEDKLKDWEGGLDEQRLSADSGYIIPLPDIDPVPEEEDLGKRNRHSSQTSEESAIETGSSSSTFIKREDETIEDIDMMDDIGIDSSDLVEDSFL
- ASSAY_COMMENT: Inhibitory activity against PDGF-Ra phosphorylation by PDGF-AA stimulation using G292
- Type: cell-based
- RUN_CONDITIONS: G292; figure within parentheses in >100( ); at 100 nM; read-out: PDGF (E) inhibition (%) at 100 nM
Rule: yes (1) for inhibition at 0.1 µM not less than 30%, no (0) for anything less.

INSERT INTO results (molecule, class_assignment) VALUES
  ('COc1cc2nccc(Oc3cc(C)c(NC(=O)OC(C#N)c4ccccc4)cc3C)c2cc1OC (centres unmarked) [Example 454]', 'no (0)');

Q. # check: inhibition at 0.1 µM of CCN(CC)CCCOC(=O)Nc1cc(C)c(Oc2ccnc3cc(OC)c(OC)cc23)cc1C [Example 427] is greater than or equal to 30%
A. no (0)

Q. # check: inhibition at 0.1 µM of CCCC(CCN1CCCCC1)OC(=O)Nc1cc(C)c(Oc2ccnc3cc(OC)c(OC)cc23)cc1C (centres unmarked) [Example 446] is greater than or equal to 30%
A. yes (1)

Q. # check: inhibition at 0.1 µM of COc1cc2nccc(Oc3cc(C)c(NC(=S)NCCN(C)C)cc3C)c2cc1OC [Example 538] is greater than or equal to 30%
A. no (0)

====

Listed below: IC50 values for each entry.
- TARGET_UNDER_TEST: PDGF-Ra (Homo sapiens)
- Construct: host or cells: G-292 human osteosarcoma cells
- ASSAY_COMMENT: Inhibitory activity against PDGF-Ra phosphorylation by PDGF-AA stimulation using G292
- Type: cell-based
- RUN_CONDITIONS: > means inhibition at indicated concentration not more than 50%, < and << not less than 50%; read-out: PDGF (E) IC50
Give just the number in nM; leave the unit off.

// worked examples, IC50 included
INSERT INTO assay_data (molecule, recorded_metric, reported_measurement) VALUES
  ('COc1cc2nccc(Oc3ccc(NC(=S)NC(=O)c4ccccc4Cl)c(Cl)c3)c2cc1OC', 'IC50', 77),
  ('COc1cc2nccc(Oc3ccc(NC(=S)NC(=O)COCc4ccccc4)c(F)c3)c2cc1OC', 'IC50', 10),
  ('CCN(C(=O)OC1CCCCC1)c1ccc(Oc2ncnc3cc(OC)c(OC)cc23)cc1', 'IC50', 59),
  ('COc1cc2nccc(Oc3ccc(NC(=S)NC(=O)Cc4ccccc4[N+](=O)[O-])cc3)c2cc1OC', 'IC50', 15),
  ('CCN(C(=S)NC(=O)CCc1ccccc1OC)c1ccc(Oc2ccnc3cc(OC)c(OC)cc23)cc1', 'IC50', 80);

Now for a further molecule.
Q. Read the entry CCC(C(=O)NC(=S)Nc1ccc(Oc2ccnc3cc(OC)c(OC)cc23)c(Cl)c1)c1ccccc1 (centres unmarked) and write its reported IC50.
A. 85

====

- TARGET_UNDER_TEST: c-kit (Homo sapiens, UniProt P10721)
- Construct: MO7e (human megakaryocytic leukemia cell line) which had been arrested for 20 hr; endogenous in cells; host or cells: MO7e human megakaryocytic leukemia cell line
- Sequence (P10721 26-976): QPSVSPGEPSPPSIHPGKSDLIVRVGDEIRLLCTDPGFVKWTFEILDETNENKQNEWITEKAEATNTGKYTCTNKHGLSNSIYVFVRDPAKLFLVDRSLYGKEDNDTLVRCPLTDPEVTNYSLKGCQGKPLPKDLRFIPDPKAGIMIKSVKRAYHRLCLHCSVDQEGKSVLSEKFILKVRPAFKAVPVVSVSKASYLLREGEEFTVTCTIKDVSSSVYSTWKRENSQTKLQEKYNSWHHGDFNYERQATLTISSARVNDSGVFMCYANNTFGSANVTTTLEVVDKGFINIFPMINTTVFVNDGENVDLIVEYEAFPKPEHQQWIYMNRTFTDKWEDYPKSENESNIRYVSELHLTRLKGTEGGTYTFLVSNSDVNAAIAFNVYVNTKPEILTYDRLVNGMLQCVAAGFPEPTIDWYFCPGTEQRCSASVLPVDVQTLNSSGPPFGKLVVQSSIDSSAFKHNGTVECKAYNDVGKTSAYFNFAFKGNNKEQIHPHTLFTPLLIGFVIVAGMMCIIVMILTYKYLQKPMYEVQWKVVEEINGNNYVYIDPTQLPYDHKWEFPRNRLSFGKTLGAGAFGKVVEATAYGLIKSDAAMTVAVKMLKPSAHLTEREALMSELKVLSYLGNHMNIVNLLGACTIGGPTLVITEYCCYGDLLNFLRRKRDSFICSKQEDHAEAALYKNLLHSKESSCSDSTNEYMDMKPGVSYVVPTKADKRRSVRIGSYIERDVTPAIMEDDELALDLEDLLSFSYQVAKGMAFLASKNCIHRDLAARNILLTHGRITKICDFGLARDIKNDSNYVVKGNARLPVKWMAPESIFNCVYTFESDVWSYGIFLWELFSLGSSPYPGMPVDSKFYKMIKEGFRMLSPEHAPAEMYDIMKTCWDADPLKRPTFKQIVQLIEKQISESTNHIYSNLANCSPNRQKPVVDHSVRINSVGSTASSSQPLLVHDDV
- ASSAY_COMMENT: Inhibitory activity against c-kit autophosphorylation (MO7e cells, h-SCF)
- Type: cell-based
- RUN_CONDITIONS: Mo7e, figure within parentheses in −( ) or >1000( ); at 1000 nM
RECORDED_METRIC: inhibition at 1 µM

Q. Give inhibition at 1 µM for this entry on c-kit (Homo sapiens, UniProt P10721): "COc1cc2nccc(Oc3ccc(NC(=O)NN4CCCCC4)c([N+](=O)[O-])c3)c2cc1OC"
A. 10%

Q. Give inhibition at 1 µM for this entry on c-kit (Homo sapiens, UniProt P10721): "COc1cc2ncnc(Oc3ccc(N(C)C(=O)OCc4ccccc4C)c(Cl)c3)c2cc1OC"
A. 17%

Q. Give inhibition at 1 µM for this entry on c-kit (Homo sapiens, UniProt P10721): "COc1cc2ncnc(Oc3ccc(NC(=O)N4CCN(c5ccccc5)CC4)cc3)c2cc1OC"
A. 18%

Q. Give inhibition at 1 µM for this entry on c-kit (Homo sapiens, UniProt P10721): "COc1cc2nccc(Oc3cc(C)c(NC(=O)NCCN4CCCC4)cc3C)c2cc1OC"
A. 44%

Q. Give inhibition at 1 µM for this entry on c-kit (Homo sapiens, UniProt P10721): "COc1cc2nccc(Oc3ccc(NC(=S)NC(=O)c4ccc(Cl)s4)c(C)c3)c2cc1OC"
A. 37%

Q. Give inhibition at 1 µM for this entry on c-kit (Homo sapiens, UniProt P10721): "COc1cc2nccc(Oc3ccc(NC(=S)NC(=O)CCc4ccc(C)cc4)cc3)c2cc1OC"
A. 20%

Q. Give inhibition at 1 µM for this entry on c-kit (Homo sapiens, UniProt P10721): "CCN(CC)CCNC(=O)Nc1ccc(Oc2ncnc3cc(OC)c(OC)cc23)cc1Cl"
A. 32%

Q. Give inhibition at 1 µM for this entry on c-kit (Homo sapiens, UniProt P10721): "COc1cc2ncnc(Oc3ccc(NC(=O)NCCN(C(C)C)C(C)C)c(Cl)c3)c2cc1OC"
A. 27%

Q. Give inhibition at 1 µM for this entry on c-kit (Homo sapiens, UniProt P10721): "CCN(CC)CCOc1ccc(Oc2ncnc3cc(OC)c(OC)cc23)cc1"
A. 20%
